These entries and their values trace back to PubChem BioAssay AID2060905.

# Test system: 282377-053-R-J1-PDC complex spheroid viability
# Experimental Protocol: Anticancer human tumor 282377-053-R-J1-PDC patient-derived colon adenocarcinoma cell line growth inhibition [RAS]
# Study Conditions: second compound 3.16 µM; first compound 0.0316 µM; stronger effect = lower value
# Text: RAS pathway inhibitors in Combinations in Complex Spheroids A high-throughput screen of multi-cell type tumor spheroids was designed to identify active combinations of RAS pathway inhibitors and targeted small molecules. Complex spheroids include a stromal component modeled by human endothelial cells (HUVEC) and fibroblasts modeled by human mesenchymal stem cells (MSCs). […] Compounds. […] If the clinical Cmax for an agent had not been determined, the highest concentration tested was 10 microM. […]
Recorded Metric: viability, T/C

Worked set:
CC(C)n1nc(-c2ccc3oc(N)nc3c2)c2c(N)ncnc21 + C#Cc1c(F)ccc2cc(O)cc(-c3ncc4c(N5CC6CCC(C5)N6)nc(OCC56CCCN5CC(F)C6)nc4c3F)c12	76.3%
CC1(O)CCCC1n1c(=O)c(C(F)F)cc2cnc(NC3CCN(S(C)(=O)=O)CC3)nc21 (stereo not given) + C#Cc1c(F)ccc2cc(O)cc(-c3ncc4c(N5CC6CCC(C5)N6)nc(OCC56CCCN5CC(F)C6)nc4c3F)c12	94.4%
CC(C)NCC(C(=O)N1CCN(c2ncnc3c2C(C)CC3O)CC1)c1ccc(Cl)cc1 (stereo not given) + C#Cc1c(F)ccc2cc(O)cc(-c3ncc4c(N5CC6CCC(C5)N6)nc(OCC56CCCN5CC(F)C6)nc4c3F)c12	98.5%
CC(Nc1ccc2c(c1)OCCn1cc(N3C(=O)OCC3C(F)F)nc1-2)C(N)=O (stereo not given) + C#Cc1c(F)ccc2cc(O)cc(-c3ncc4c(N5CC6CCC(C5)N6)nc(OCC56CCCN5CC(F)C6)nc4c3F)c12	90.5%

API: the following record is the query input.
Exam item: Dear colleague, I am looking for the recorded viability, T/C of the following compound: CC(=O)OC12COC1CC(O)C1(C)C(=O)C(O)C3=C(C)C(OC(=O)C(O)C(NC(=O)OC(C)(C)C)c4ccccc4)CC(O)(C(OC(=O)c4ccccc4)C21)C3(C)C (stereo not given) + C#Cc1c(F)ccc2cc(O)cc(-c3ncc4c(N5CC6CCC(C5)N6)nc(OCC56CCCN5CC(F)C6)nc4c3F)c12
Marked response: 27.9%

---

In this section, each of the molecules is paired with its reported viability, T/C.
# Tested on: 282377-053-R-J1-PDC complex spheroid viability
# Experimental Protocol: Anticancer human tumor 282377-053-R-J1-PDC cell line growth inhibition [RAS];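 further: spheroids exposed to agents for seven days before readout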;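 on viability, T/C: luminescence viability as percent of DMSO vehicle control wells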
# Study Conditions: second compound 0.316 µM; first compound 0.03 µM; stronger effect = lower value
I only need the number, in %, no unit after it.

CCc1c2c(nc3ccc(O)cc13)-c1cc3c(c(=O)n1C2)COC(=O)[C@]3(O)CC + C#Cc1c(F)ccc2cc(O)cc(-c3ncc4c(N5CC6CCC(C5)N6)nc(OCC56CCCN5CC(F)C6)nc4c3F)c12	101
CCc1c2c(nc3ccc(O)cc13)-c1cc3c(c(=O)n1C2)COC(=O)[C@]3(O)CC + C=CC(=O)N1CCN(c2nc(OCC3CCCN3C)nc3c(F)c(-c4nc(N)cc(C)c4C(F)(F)F)c(Cl)cc23)C(C)C1	98.6
CC1(C)CCC(Nc2ncc(C(F)(F)F)c(-c3c[nH]c4c(P(C)(C)=O)c(C#N)ccc34)n2)CN1 (centres undefined) + C#Cc1c(F)ccc2cc(O)cc(-c3ncc4c(N5CC6CCC(C5)N6)nc(OCC56CCCN5CC(F)C6)nc4c3F)c12	67.1

Exam item: Dear colleague, I am looking for the recorded viability, T/C of the following molecule: CC1(C)CCC(Nc2ncc(C(F)(F)F)c(-c3c[nH]c4c(P(C)(C)=O)c(C#N)ccc34)n2)CN1 (centres undefined) + C=CC(=O)N1CCN(c2nc(OCC3CCCN3C)nc3c(F)c(-c4nc(N)cc(C)c4C(F)(F)F)c(Cl)cc23)C(C)C1
Marked response: 65.1

---

In this section, each of the molecules is paired with its reported IC50.
# System: 282377-053-R-J1-PDC complex spheroid viability
# Experimental Protocol: Anticancer human tumor 282377-053-R-J1-PDC cell line growth inhibition [RAS];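 further: spheroids exposed to agents for seven days before readout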
# Study Conditions: curve of first compound; second compound 0.3 µM

Worked set:
NC1c2ccccc2OC12CCN(c1cnc3c(N4CCCc5ncccc54)n[nH]c3n1)CC2 (stereo not given) + CCn1c(-c2cccnc2C(C)OC)c2c3cc(ccc31)N1CCOC(CC(NC(=O)C(C(C)C)N(C)C(=O)C3(F)CCN(C(=O)C#CC(C)(C)N(C)C)CC3)C(=O)N3CCCC(N3)C(=O)OCC(C)(C)C2)C1	> 10 µM
Nc1ccn(C2OC(CO)C(O)C2(F)F)c(=O)n1 (stereo not given) + CCn1c(-c2cccnc2C(C)OC)c2c3cc(ccc31)N1CCOC(CC(NC(=O)C(C(C)C)N(C)C(=O)C3(F)CCN(C(=O)C#CC(C)(C)N(C)C)CC3)C(=O)N3CCCC(N3)C(=O)OCC(C)(C)C2)C1	> 1 µM
CC(Nc1ccc2c(c1)OCCn1cc(N3C(=O)OCC3C(F)F)nc1-2)C(N)=O (stereo not given) + CCn1c(-c2cc(N3CCN(C)CC3)cnc2C(C)OC)c2c3cc(ccc31)-c1csc(n1)CC(NC(=O)C1CC1C)C(=O)N1CCCC(N1)C(=O)OCC(C)(C)C2	> 10 µM
C=CC(=O)Nc1cc(Nc2nccc(-c3cn(C)c4ccccc34)n2)c(OC)cc1N(C)CCN(C)C + CCn1c(-c2cc(N3CCN(C)CC3)cnc2C(C)OC)c2c3cc(ccc31)-c1csc(n1)CC(NC(=O)C1CC1C)C(=O)N1CCCC(N1)C(=O)OCC(C)(C)C2	> 1 µM

Exam item: Dear colleague, I am looking for the recorded IC50 of the following molecule: NC1c2ccccc2OC12CCN(c1cnc3c(N4CCCc5ncccc54)n[nH]c3n1)CC2 (stereo not given) + CCn1c(-c2cc(N3CCN(C)CC3)cnc2C(C)OC)c2c3cc(ccc31)-c1csc(n1)CC(NC(=O)C1CC1C)C(=O)N1CCCC(N1)C(=O)OCC(C)(C)C2
Marked response: > 10 µM

---

# Tested on: 282377-053-R-J1-PDC complex spheroid viability
# Experimental Protocol: Anticancer human tumor 282377-053-R-J1-PDC cell line growth inhibition [RAS];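 further: spheroids exposed to agents for seven days before readout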;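 on viability, T/C: luminescence viability as percent of DMSO vehicle control wells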
# Study Conditions: second compound 0.00949 µM; first compound 0.0316 µM; stronger effect = lower value
Recorded Metric: viability, T/C (%)
I only need the number, in %, no unit after it.

Worked set:
Cc1nc(N2CCC3(CC2)COC(C)C3N)c(CO)nc1Sc1ccnc(N)c1Cl (stereo not drawn) + CCn1c(-c2cccnc2C(C)OC)c2c3cc(ccc31)N1CCOC(CC(NC(=O)C(C(C)C)N(C)C(=O)C3(F)CCN(C(=O)C#CC(C)(C)N(C)C)CC3)C(=O)N3CCCC(N3)C(=O)OCC(C)(C)C2)C1	111
CC1(O)CCCC1n1c(=O)c(C(F)F)cc2cnc(NC3CCN(S(C)(=O)=O)CC3)nc21 (stereo not drawn) + CCn1c(-c2cc(N3CCN(C)CC3)cnc2C(C)OC)c2c3cc(ccc31)-c1csc(n1)CC(NC(=O)C1CC1C)C(=O)N1CCCC(N1)C(=O)OCC(C)(C)C2	91.9
C=CC(=O)Nc1cc(Nc2nccc(-c3cn(C)c4ccccc34)n2)c(OC)cc1N(C)CCN(C)C + CCn1c(-c2cccnc2C(C)OC)c2c3cc(ccc31)N1CCOC(CC(NC(=O)C(C(C)C)N(C)C(=O)C3(F)CCN(C(=O)C#CC(C)(C)N(C)C)CC3)C(=O)N3CCCC(N3)C(=O)OCC(C)(C)C2)C1	98
C[C@@H](NC(=O)c1ncnc(N)c1Cl)c1ncc(C(=O)Nc2cc(C(F)(F)F)c(Cl)cn2)s1 + CCn1c(-c2cccnc2C(C)OC)c2c3cc(ccc31)N1CCOC(CC(NC(=O)C(C(C)C)N(C)C(=O)C3(F)CCN(C(=O)C#CC(C)(C)N(C)C)CC3)C(=O)N3CCCC(N3)C(=O)OCC(C)(C)C2)C1	93.7
NC1c2ccccc2OC12CCN(c1cnc3c(N4CCCc5ncccc54)n[nH]c3n1)CC2 (stereo not drawn) + CCn1c(-c2cc(N3CCN(C)CC3)cnc2C(C)OC)c2c3cc(ccc31)-c1csc(n1)CC(NC(=O)C1CC1C)C(=O)N1CCCC(N1)C(=O)OCC(C)(C)C2	135
Nc1ccn(C2OC(CO)C(O)C2(F)F)c(=O)n1 (stereo not drawn) + CCn1c(-c2cc(N3CCN(C)CC3)cnc2C(C)OC)c2c3cc(ccc31)-c1csc(n1)CC(NC(=O)C1CC1C)C(=O)N1CCCC(N1)C(=O)OCC(C)(C)C2	129
O=C(c1ccc(F)c(F)c1Nc1ccc(I)cc1F)N1CC(O)([C@@H]2CCCCN2)C1 + CCn1c(-c2cc(N3CCN(C)CC3)cnc2C(C)OC)c2c3cc(ccc31)-c1csc(n1)CC(NC(=O)C1CC1C)C(=O)N1CCCC(N1)C(=O)OCC(C)(C)C2	51.7

API: the following record is the query input.
Exam item: Dear colleague, I am looking for the recorded viability, T/C of the following compound: CCC(CC)c1cc(NC2CCC(N)C2)n2nccc2n1 (stereo not drawn) + CCn1c(-c2cc(N3CCN(C)CC3)cnc2C(C)OC)c2c3cc(ccc31)-c1csc(n1)CC(NC(=O)C1CC1C)C(=O)N1CCCC(N1)C(=O)OCC(C)(C)C2
Marked response: 81.9
